- tested.system: thermolysin (Bacillus thermoproteolyticus)
- Sequence (P00800 233-548): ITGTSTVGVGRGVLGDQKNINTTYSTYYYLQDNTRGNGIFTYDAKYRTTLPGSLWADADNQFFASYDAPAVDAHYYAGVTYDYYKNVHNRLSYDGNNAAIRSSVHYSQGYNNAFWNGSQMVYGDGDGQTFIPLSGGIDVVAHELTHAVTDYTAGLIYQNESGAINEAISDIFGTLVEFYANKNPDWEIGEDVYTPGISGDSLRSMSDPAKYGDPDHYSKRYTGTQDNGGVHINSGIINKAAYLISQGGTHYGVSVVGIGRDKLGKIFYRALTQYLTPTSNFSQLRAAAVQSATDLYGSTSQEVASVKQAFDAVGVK
- Type: biochemical
- applied.conditions: free energy of binding corresponding to Ki
assay.readout: ΔGKi (kcal/mol)
Return type: number; implicit unit kcal/mol.

INSERT INTO assay_data (mol, tested_system, experimental_result) VALUES
  ('CCNC(=O)[C@H](CC(C)C)NP(=O)([O-])CNC(=O)OCc1ccccc1.[Li+]', 'thermolysin (Bacillus thermoproteolyticus)', -8.91);

Quick check: ΔGKi of CC(C)C[C@H](NP(=O)([O-])CNC(=O)OCc1ccccc1)C(=O)NCC(=O)[O-].[Li+].[Li+] ?
-8.63

Request the reported ΔGKi associated with CC(C)C[C@H](NP(=O)([O-])CNC(=O)OCc1ccccc1)C(=O)N[C@@H](C)C(=O)[O-].[Li+].[Li+]
-10.5

Give the measured ΔGKi of CNC(=O)[C@H](CC(C)C)NP(=O)([O-])CNC(=O)OCc1ccccc1.[Li+] .
-8.25
